Where these numbers come from: patent US11111245B2

- targetOrTestSystem: CDKs and other kinases (Homo sapiens)
- Construct: other: CDK2A; residual activity (%) at 10 μM CDK2A; compound at 10 μM
- protocolNotes: Radiometric kinase assay (Eurofins Pharma Discovery or Reaction Biology Corporation Kinase Profiler)
- Assay type: biochemical
- conditionContext: CDK2A; compound at 10 μM; read-out: residual activity (%) at 10 μM CDK2A
quantityKind: remaining activity at 10 µM (%)

>>> print(df.to_string())
                                   compound  numericreadout
0  N[C@H]1CC[C@H](Nc2ncc(F)c(-c3cnc4ccc(NC(=O)c5ccc(F)cc5)cn34)n2)CC1               4
1  COc1ccc(-c2ccc3ncc(-c4nc(N[C@H]5CC[C@H](O)CC5)ncc4Cl)n3c2)cn1               4
2  CNC(=O)N[C@H]1CC[C@H](Nc2ncc(C)c(-c3cnc4ccc(Nc5cncnc5)cn34)n2)CC1               2
3  N[C@H]1CC[C@H](Nc2ncc(F)c(-c3cnc4cc(-c5ccccc5)ccn34)n2)CC1               0
4  Cc1cnc(N[C@H]2CC[C@H](O)CC2)nc1-c1cnc2ccccn12               5

P: CN[C@H]1CC[C@H](Nc2ncc(C)c(-c3cnc4ccc(-c5ccccc5)cn34)n2)CC1
Q: Cc1cnc(N[C@H]2CC[C@H](N(CC(N)=O)CC(N)=O)CC2)nc1-c1cnc2ccc(Nc3cncnc3)cn12
R: Cc1cnc(N[C@H]2CC[C@H](N)CC2)nc1-c1cnc2cc(-c3ccccc3)ccn12
Query: Order these by remaining activity at 10 µM, descending, and give the full ranking. List the labels according to the requested ordering.
Reply: P, Q, R

I: Cc1cnc(NC2CCC(N(C)C)CC2)nc1-c1cnc2ccc(Nc3cncc(F)c3)cn12 (stereo not shown)
II: Cc1cnc(NC2CCCC(N)C2)nc1-c1cnc2ccc(-c3ccccc3)cn12 (stereo not shown)
Query: Between I and II , whose measured remaining activity at 10 µM reads higher? Answer by quoting the chosen item's label.
Reply: II

* * *

- targetOrTestSystem: CDKs and other kinases (Homo sapiens)
- Construct: other: CDK2A; residual activity (%) at 10 μM CDK2A; compound at 10 μM
- protocolNotes: Radiometric kinase assay (Eurofins Pharma Discovery or Reaction Biology Corporation Kinase Profiler)
- Assay type: biochemical
- conditionContext: CDK2A; compound at 10 μM; read-out: residual activity (%) at 10 μM CDK2A
quantityKind: remaining activity at 10 µM (%)

Use the examples below as a reference point.
In [3]: df
Out[3]:
                                 itemsmiles  numericreadout
0  Cc1cnc(N[C@H]2CC[C@H](N)CC2)nc1-c1cnc2ccc(NC(=O)Cc3ccccc3)cn12              62
1  Cc1cnc(N[C@H]2CC[C@H](N)CC2)nc1-c1cnc2ccc(-c3ccc(CN4CCOCC4)cc3)cn12              62
2  Cc1cnc(N[C@H]2CC[C@H](N)CC2)nc1-c1cnc2ccc(NC(=O)c3ccc(F)cc3)cn12              52
3  CCS(=O)(=O)N1CCC(Nc2ncc(F)c(-c3cnc4ccc(-c5ccccc5)cn34)n2)CC1               0
4  Cc1cnc(N[C@H]2CC[C@H](N)CC2)nc1-c1cnc2ccc(-c3ccoc3)cn12               6

a: N[C@H]1CC[C@H](Nc2ncc(F)c(-c3cnc4cc(-c5cccnc5)ccn34)n2)CC1
b: Cc1cnc(N[C@H]2CC[C@H](N)CC2)nc1-c1cnc2cc(-c3cccnc3)ccn12
Query: Please choose the item with the lower remaining activity at 10 µM value from this pair: a and b Answer by quoting the chosen item's label.
Reply: a
(a: 0%, b: 5%)
